Biological target: Glutathione peroxidase 1 (Homo sapiens) (UniProt P07203)
Sequence (P07203 whole entry, looked up): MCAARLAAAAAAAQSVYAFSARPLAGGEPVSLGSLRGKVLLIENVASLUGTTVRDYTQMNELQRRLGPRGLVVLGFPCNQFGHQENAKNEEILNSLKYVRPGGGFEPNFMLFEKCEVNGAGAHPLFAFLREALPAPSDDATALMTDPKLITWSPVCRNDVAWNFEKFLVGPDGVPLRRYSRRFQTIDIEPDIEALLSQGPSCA
Assay: Primary qHTS Assay for Inhibitors of Recombinant Selenoprotein Glutathione Peroxidase 1 (GPX1) (AID 1845191); further: nearly all actives have a fitted effect of over 65% in size
Details: recombinant GPX1, GR-coupled NADPH fluorescence, 15 min; series mostly up to 27.7 µM
Procedure: Assay Provider: Elias S.J. Arner MD PhD. Department of Medical Biochemistry and Biophysics Karolinska Institutet, Solna, Stockholm, Sweden […] 5; Detection; Fluorescence; ViewLux microplate reader, excitation 340 nm and emission 450 nm. […] 7; Detection; Fluorescence; ViewLux microplate reader, excitation 340 nm and emission 450 nm. […] 5. Initial fluorescence readout (t=0) at 340/450 nm was measured using a ViewLux multimodal detector (PerkinElmer, Waltham, MA). […]
Inconclusive results are not listed. The source made the active and inactive calls. The call rests on the fitted dose curve; in most records, active means well fitted inhibition curve with a large enough effect; inconclusive means small, poorly fitted or top-dose-only effect; inactive means flat fitted curve, though single readings scatter.
recorded-metric: outcome

Examples with answers:
| compound | recorded-metric | recorded-result |
| --- | --- | --- |
| Cc1ccc(C)c(NC(=O)CNS(=O)(=O)c2ccc3[nH]c(=O)oc3c2)c1 | outcome | inactive |
| C/C=C(\C)C(=O)O[C@H]1C=CC(=O)O[C@H]1/C=C/[C@H](O)[C@@H](C)O | outcome | inactive |
| C=C(C)[C@@H]1CC[C@]2(C(=O)O)CC[C@]3(C)C(CCC4[C@]5(C)C(CC[C@]43C)C(C)(C)[C@@H](O)[C@@H]5C(=O)O)C12 (some centres not stated) | outcome | inactive |
| CCCO[C@@H]1O[C@H](CO)[C@@H](O)[C@H](O)[C@H]1O[C@@H]1OC[C@@H](O)[C@H](O)[C@H]1O | outcome | inactive |
| COC(=O)c1c(CC=C(C)C)c(OC2OC(CO)C(O)C(O)C2O)c2ccccc2c1OC1OC(CO)C(O)C(O)C1O (configuration not stated) | outcome | inactive |
| C[C@]1(OC(=O)/C=C\c2ccc(O)cc2)C[C@@H](O)[C@]2(O)C=CO[C@@H](O[C@@H]3O[C@H](CO)[C@@H](O)[C@H](O)[C@H]3O)C12 (some centres not stated) | outcome | inactive |

Please find the next compound below.
Request: # query: outcome | item CC[C@@H]1[C@H]2CCCCN3C(=O)C[C@H]([C@@H]4[C@H]1OC(=O)[C@H]4C)[C@@H]23 | system: Glutathione peroxidase 1 (Homo sapiens) (UniProt P07203)
Response: inactive

Where do the numbers come from? From PubChem BioAssay (NCATS).
